measuredTarget: Antithrombin III (plasma purified human AT-III, Molecular Innovations)
assayName: same assay; ratio to recombinant wild-type FIXa (Catalyst Biosciences WT)
Lab note - cut at 300 for K0.5-mut/K0.5-wt: MET if strictly below, NOT MET if not.

Worked cases, answers included:
{"protein": "FIXa-D203N/F205T/R318Y (protein) chain 1: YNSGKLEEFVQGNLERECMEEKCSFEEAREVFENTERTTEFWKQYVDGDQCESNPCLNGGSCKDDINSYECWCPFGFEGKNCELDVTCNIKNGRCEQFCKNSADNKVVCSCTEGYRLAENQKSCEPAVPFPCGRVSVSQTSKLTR chain 2: VVGGEDAKPGQFPWQVVLNGKVNATCGGSIVNEKWIVTAAHCVETGVKITVVAGEHNIEETEHTEQKRNVIRIIPHHNYNAAINKYNHDIALLELDEPLVLNSYVTPICIADKEYTNIFLKFGSGYVSGWGRVFHKGYSALVLQYLRVPLVDRATCLRSTKFTIYNNMFCAGFHEGGRDSCQGDSGGPHVTEVEGTSFLTGIISWGEECAMKGKYGIYTKVSRYVNWIKEKTKLT", "classLabel": "NOT MET"}
{"protein": "FIXa-D203N/F205T/R338E (protein) chain 1: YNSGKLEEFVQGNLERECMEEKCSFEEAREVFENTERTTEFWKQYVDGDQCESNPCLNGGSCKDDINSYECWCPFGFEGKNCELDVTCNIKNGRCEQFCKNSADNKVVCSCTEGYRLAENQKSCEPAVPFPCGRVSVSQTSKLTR chain 2: VVGGEDAKPGQFPWQVVLNGKVNATCGGSIVNEKWIVTAAHCVETGVKITVVAGEHNIEETEHTEQKRNVIRIIPHHNYNAAINKYNHDIALLELDEPLVLNSYVTPICIADKEYTNIFLKFGSGYVSGWGRVFHKGRSALVLQYLRVPLVDRATCLESTKFTIYNNMFCAGFHEGGRDSCQGDSGGPHVTEVEGTSFLTGIISWGEECAMKGKYGIYTKVSRYVNWIKEKTKLT", "classLabel": "MET"}
{"protein": "FIXa-K228N/R318Y/E410N (protein) chain 1: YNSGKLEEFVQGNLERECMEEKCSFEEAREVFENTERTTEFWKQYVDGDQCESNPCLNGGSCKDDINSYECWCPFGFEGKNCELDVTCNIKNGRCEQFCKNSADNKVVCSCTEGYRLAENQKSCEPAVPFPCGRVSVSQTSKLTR chain 2: VVGGEDAKPGQFPWQVVLNGKVDAFCGGSIVNEKWIVTAAHCVETGVNITVVAGEHNIEETEHTEQKRNVIRIIPHHNYNAAINKYNHDIALLELDEPLVLNSYVTPICIADKEYTNIFLKFGSGYVSGWGRVFHKGYSALVLQYLRVPLVDRATCLRSTKFTIYNNMFCAGFHEGGRDSCQGDSGGPHVTEVEGTSFLTGIISWGEECAMKGKYGIYTKVSRYVNWIKNKTKLT", "classLabel": "MET"}
{"protein": "FIXa-Y155F/R318Y/R338E/E410N (protein) chain 1: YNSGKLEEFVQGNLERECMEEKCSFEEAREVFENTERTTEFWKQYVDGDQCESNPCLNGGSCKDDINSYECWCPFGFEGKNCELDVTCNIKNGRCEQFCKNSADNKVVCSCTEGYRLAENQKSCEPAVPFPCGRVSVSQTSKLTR chain 2: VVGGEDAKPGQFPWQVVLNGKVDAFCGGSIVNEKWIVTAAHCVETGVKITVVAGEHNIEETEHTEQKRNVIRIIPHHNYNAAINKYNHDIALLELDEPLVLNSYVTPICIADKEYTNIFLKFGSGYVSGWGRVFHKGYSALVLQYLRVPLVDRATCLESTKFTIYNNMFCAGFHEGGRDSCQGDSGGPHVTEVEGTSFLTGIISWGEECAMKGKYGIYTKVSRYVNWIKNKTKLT", "classLabel": "MET"}

Query protein follows.
Take the protein FIXa-K228N/R338E/R403E (protein) chain 1: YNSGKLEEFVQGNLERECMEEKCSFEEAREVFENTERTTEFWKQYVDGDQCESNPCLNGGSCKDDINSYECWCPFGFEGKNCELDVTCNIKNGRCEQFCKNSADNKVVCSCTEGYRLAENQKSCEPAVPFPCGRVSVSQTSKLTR chain 2: VVGGEDAKPGQFPWQVVLNGKVDAFCGGSIVNEKWIVTAAHCVETGVNITVVAGEHNIEETEHTEQKRNVIRIIPHHNYNAAINKYNHDIALLELDEPLVLNSYVTPICIADKEYTNIFLKFGSGYVSGWGRVFHKGRSALVLQYLRVPLVDRATCLESTKFTIYNNMFCAGFHEGGRDSCQGDSGGPHVTEVEGTSFLTGIISWGEECAMKGKYGIYTKVSEYVNWIKEKTKLT and say whether its K0.5-mut/K0.5-wt is less than 300.
MET

Origin of the recorded values: patent US20210238260
